Exercise: for every item that follows, state its recorded T/C.
system: P388; assay: Compound was evaluated for activity against P388 leukemia, at an intraperitoneal dose of 25 mg/kg; type: functional, Mus musculus
Please respond with the number in % and leave the unit unwritten.

Prompt: Consider the molecule COc1ccc(C(c2cc(O)ccc2O)c2ccc(C(C)C)cc(=O)c2O)cc1 (stereo unspecified) and give its measured T/C.
Completion: 142

Prompt: Consider the molecule COc1ccc(C(c2ccc(C(C)C)cc(=O)c2O)c2c(O)cc3oc(-c4ccccc4)cc(=O)c3c2O)cc1 (stereo unspecified) and give its measured T/C.
Completion: 127

Prompt: Consider the molecule COc1ccc(C(c2cc(C(C)(C)C)ccc2O)c2ccc(C(C)C)cc(=O)c2O)cc1 (stereo unspecified) and give its measured T/C.
Completion: 116

Prompt: Consider the molecule COc1ccc(C(c2ccc(C(C)C)cc(=O)c2O)C2Oc3c(Cl)c(OC)cc(OC)c3C2=O)cc1 (stereo unspecified) and give its measured T/C.
Completion: 117

Prompt: Consider the molecule COc1ccc(C(c2cc(C(C)(C)C)cc(O)c2O)c2ccc(C(C)C)cc(=O)c2O)cc1 (stereo unspecified) and give its measured T/C.
Completion: 127

Prompt: Consider the molecule COc1ccc(C(c2ccc(C(C)C)cc(=O)c2O)c2ccc3ccccc3c2O)cc1 (stereo unspecified) and give its measured T/C.
Completion: 125

* * *

system: P388; experiment: Compound was evaluated for activity against P388 leukemia, at an intraperitoneal dose of 12.5 mg/kg; format: functional, Mus musculus
RESULT TYPE: T/C (%)
Please respond with the number in % and leave the unit unwritten.

Prompt: Consider the compound COc1ccc(C(c2ccc(C(C)C)cc(=O)c2O)c2ccc3ccccc3c2O)cc1 (centres undefined) and give its measured T/C.
Completion: 105

Prompt: Consider the compound COc1ccc(C(c2ccc(C(C)C)cc(=O)c2O)c2ccc3cccnc3c2O)cc1 (centres undefined) and give its measured T/C.
Completion: 141

Prompt: Consider the compound COc1ccc(C(c2cc(C(C)(C)C)cc(O)c2O)c2ccc(C(C)C)cc(=O)c2O)cc1 (centres undefined) and give its measured T/C.
Completion: 110

Prompt: Consider the compound COc1ccc(C(c2cc(O)ccc2O)c2ccc(C(C)C)cc(=O)c2O)cc1 (centres undefined) and give its measured T/C.
Completion: 128

* * *

tested on: P388; assay: Compound was evaluated for activity against P388 leukemia, at an intraperitoneal dose of 50 mg/kg; assay type: functional, Mus musculus
Exercise: for every item that follows, state its recorded T/C.

Prompt: Consider the compound COc1ccc(C(c2cc(C(C)(C)C)cc(O)c2O)c2ccc(C(C)C)cc(=O)c2O)cc1 (configuration not stated) and give its measured T/C.
Completion: 168%

Prompt: Consider the compound COc1ccc(C(C2=C(O)C(=O)c3ccccc3C2=O)c2ccc(C(C)C)cc(=O)c2O)cc1 (configuration not stated) and give its measured T/C.
Completion: 0%

Prompt: Consider the compound COc1ccc(C(c2ccc(O)cc2O)c2ccc(C(C)C)cc(=O)c2O)cc1 (configuration not stated) and give its measured T/C.
Completion: 98%

Prompt: Consider the compound COc1ccc(C(c2ccc(C(C)C)cc(=O)c2O)c2ccc3ccccc3c2O)cc1 (configuration not stated) and give its measured T/C.
Completion: 108%

Prompt: Consider the compound COc1ccc(C(c2cc(C(C)(C)C)ccc2O)c2ccc(C(C)C)cc(=O)c2O)cc1 (configuration not stated) and give its measured T/C.
Completion: 116%

Prompt: Consider the compound COc1ccc(C(c2ccc(C(C)C)cc(=O)c2O)C2Oc3c(Cl)c(OC)cc(OC)c3C2=O)cc1 (configuration not stated) and give its measured T/C.
Completion: 109%

Prompt: Consider the compound COc1ccc(C(c2cc(O)ccc2O)c2ccc(C(C)C)cc(=O)c2O)cc1 (configuration not stated) and give its measured T/C.
Completion: 128%
